All figures here come from paper PMC8869097.

melting point values, listed per item

query: Provide one value: measured melting point of O=C(O)c1ccc2nc(-c3cccs3)sc2c1 [Compound 10b]
result: > 250 °C

query: Provide one value: measured melting point of c1c[nH]c(-c2nc3ccccc3s2)c1
result: 132 °C

query: Provide one value: measured melting point of NS(=O)(=O)c1ccc2nc(-c3cccs3)sc2c1 [Compound 10c]
result: > 250 °C

query: Provide one value: measured melting point of NS(=O)(=O)c1ccc2nc(-c3ccco3)sc2c1
result: > 250 °C

query: Provide one value: measured melting point of c1coc(-c2nc3ccccc3s2)c1
result: 103 °C

query: Provide one value: measured melting point of c1csc(-c2nc3ccccc3s2)c1 [Compound 10a, 2-(Thiophen-2-Yl)benzothiazole]
result: 99 °C

query: Provide one value: measured melting point of O=C(O)c1ccc2nc(-c3ccc[nH]3)sc2c1
result: > 250 °C

query: Provide one value: measured melting point of O=C(O)c1ccc2nc(-c3ccco3)sc2c1
result: > 250 °C

query: Provide one value: measured melting point of NS(=O)(=O)c1ccc2nc(-c3ccc[nH]3)sc2c1
result: > 250 °C

----------
ε (molar extinction coefficient) values, listed per item
assay: UV spectra of compounds in solution (filtering parameters); format: physicochemical; settings: DMSO
Provide a numeric answer; units are not to be included.

query: Provide one value: measured ε (molar extinction coefficient) of NS(=O)(=O)c1ccc2nc(-c3ccc[nH]3)sc2c1
result: 13944.22

Continuing:
query: Provide one value: measured ε (molar extinction coefficient) of O=C(O)c1ccc2nc(-c3ccc[nH]3)sc2c1
result: 5308.47

query: Provide one value: measured ε (molar extinction coefficient) of c1csc(-c2nc3ccccc3s2)c1 [Compound 10a, 2-(Thiophen-2-Yl)benzothiazole]
result: 12735.17

query: Provide one value: measured ε (molar extinction coefficient) of O=S(=O)(O)c1ccc2[nH]c(-c3ccccc3)nc2c1 [PBSA, reference compound]
result: 23839.66

query: Provide one value: measured ε (molar extinction coefficient) of O=C(O)c1ccc2nc(-c3cccs3)sc2c1 [Compound 10b]
result: 17818.74

query: Provide one value: measured ε (molar extinction coefficient) of c1coc(-c2nc3ccccc3s2)c1
result: 21715.82

query: Provide one value: measured ε (molar extinction coefficient) of NS(=O)(=O)c1ccc2nc(-c3cccs3)sc2c1 [Compound 10c]
result: 20273.35

query: Provide one value: measured ε (molar extinction coefficient) of c1c[nH]c(-c2nc3ccccc3s2)c1
result: 29500.00

query: Provide one value: measured ε (molar extinction coefficient) of O=C(O)c1ccc2nc(-c3ccco3)sc2c1
result: 23901.58

query: Provide one value: measured ε (molar extinction coefficient) of NS(=O)(=O)c1ccc2nc(-c3ccco3)sc2c1
result: 10332.75

----------
assay: UV spectra of compounds in solution (filtering parameters); type: physicochemical; conditions: MeOH
measured.parameter: A (absorbance)
Provide a numeric answer; units are not to be included.

query: Provide one value: measured A (absorbance) of NS(=O)(=O)c1ccc2nc(-c3cccs3)sc2c1 [Compound 10c]
result: 0.430

query: Provide one value: measured A (absorbance) of c1coc(-c2nc3ccccc3s2)c1 [Compound 9a, 2-(Furan-2-Yl)benzothiazole]
result: 2.750

query: Provide one value: measured A (absorbance) of NS(=O)(=O)c1ccc2nc(-c3ccc[nH]3)sc2c1 [Compound 8c]
result: 0.760
